Test: Multiple oral dose plasma pharmacokinetics in healthy subjects
Format: in vivo, human
Conditions: human, plasma, oral, 30 ug, healthy subjects, 30 μg qd, Day 13, plasma; mean; read-out: Cmax
MEASURED_PROPERTY: Cmax (ng/mL)
Field format: number, assumed ng/mL, no unit text.

Task item: Tell me the measured Cmax of O=C(O)c1cc(F)c2nc(N3C4CC[C@H]3CC(OCc3c(-c5ccccc5OC(F)(F)F)noc3C3CC3)C4)sc2c1 (stereo partly shown) [Compound A] , please.
Reply: 0.943

---

Assay: Pharmacokinetics in the chronic 2 week rat ANIT-induced cholestasis model
Assay type: in vivo
Details: male, Wistar, po, 1.0 mg/kg, day 13, serum, read-out: AUC 0-24 hr
MEASURED_PROPERTY: AUC(0-t) (ng·h/mL)
Field format: number, assumed ng·h/mL, no unit text.

Task item: Tell me the measured AUC(0-t) of O=C(O)c1cc(F)c2nc(N3C4CC[C@H]3CC(OCc3c(-c5ccccc5OC(F)(F)F)noc3C3CC3)C4)sc2c1 (stereo partly shown) , please.
Reply: 582
